Test system: human red blood cells (hRBC)
Type: cell-based
Conditions: red cells of human, 1 h
Where a SMILES comes first, the peptide text is derived from it. [ ]: non-standard residue; d: D form. Cha = N[C@@H](CC1CCCCC1)C(=O)O; Chg = N[C@H](C(=O)O)C1CCCCC1; Tle = CC(C)(C)[C@H](N)C(=O)O; dDab = NCC[C@@H](N)C(=O)O; Orn = NCCC[C@H](N)C(=O)O; Dab = NCC[C@H](N)C(=O)O
endpoint.name: Hemolysis at 100 μg/ml
Record the result as number plus unit.

Solved cases (4 shown):
- molecule: "CC(C)C[C@@H]1NC(=O)[C@@H]2CCCN2C(=O)[C@H]2CCCN2C(=O)[C@H](CO)NC(=O)[C@H](C)NC(=O)[C@H](CC2CCCCC2)NC(=O)[C@H](CCN)NC(=O)[C@H](Cc2c[nH]c3ccccc23)NC(=O)[C@H](CCN)NC(=O)[C@@H](CCN)NC(=O)[C@H](CCCN)NC(=O)[C@H](CCN)NC(=O)[C@H](Cc2ccc(O)cc2)NC(=O)[C@H](Cc2c[nH]c3ccccc23)NC1=O [compound 26] (cyclo(LWY[Dab][Orn][dDab][Dab]W[Dab][Cha]AS[dP]P))"
  endpoint.name: "Hemolysis at 100 μg/ml"
  readout.value: "1%"
- molecule: "CC(C)C[C@@H]1NC(=O)[C@@H]2CCCN2C(=O)[C@H]2CCCN2C(=O)[C@H](CO)NC(=O)[C@H](C)NC(=O)[C@H](C2CCCCC2)NC(=O)[C@H](CCN)NC(=O)[C@H](Cc2c[nH]c3ccccc23)NC(=O)[C@H](CCN)NC(=O)[C@@H](CCN)NC(=O)[C@H](CCCN)NC(=O)[C@H](CCN)NC(=O)[C@H](C(C)(C)C)NC(=O)[C@H](Cc2c[nH]c3ccccc23)NC1=O [compound 34] (cyclo(LW[Tle][Dab][Orn][dDab][Dab]W[Dab][Chg]AS[dP]P))"
  endpoint.name: "Hemolysis at 100 μg/ml"
  readout.value: "1%"
- molecule: "CC(C)C[C@@H]1NC(=O)[C@@H]2CCCN2C(=O)[C@H]2CCCN2C(=O)[C@H](CO)NC(=O)[C@H](Cc2ccc(O)cc2)NC(=O)[C@H](C(C)(C)C)NC(=O)[C@H](CCN)NC(=O)[C@H](Cc2c[nH]c3ccccc23)NC(=O)[C@H](CCN)NC(=O)[C@@H](CCN)NC(=O)[C@H](CCCN)NC(=O)[C@H](CCN)NC(=O)[C@H](Cc2ccc(O)cc2)NC(=O)[C@H](Cc2ccc(O)cc2)NC1=O [compound 38] (cyclo(LYY[Dab][Orn][dDab][Dab]W[Dab][Tle]YS[dP]P))"
  endpoint.name: "Hemolysis at 100 μg/ml"
  readout.value: "0%"
- molecule: "CC(C)C[C@@H]1NC(=O)[C@@H]2CCCN2C(=O)[C@H]2CCCN2C(=O)[C@H](CO)NC(=O)[C@H](CO)NC(=O)[C@H](CC2CCCCC2)NC(=O)[C@H](CCN)NC(=O)[C@H](Cc2c[nH]c3ccccc23)NC(=O)[C@H](CCN)NC(=O)[C@@H](CCN)NC(=O)[C@H](CCCN)NC(=O)[C@H](CCN)NC(=O)[C@H](Cc2ccc(O)cc2)NC(=O)[C@H](Cc2c[nH]c3ccccc23)NC1=O [compound 32] (cyclo(LWY[Dab][Orn][dDab][Dab]W[Dab][Cha]SS[dP]P))"
  endpoint.name: "Hemolysis at 100 μg/ml"
  readout.value: "3%"

Next item in the queue.
## Task Name the recorded Hemolysis at 100 μg/ml for CC(C)C[C@@H]1NC(=O)[C@@H]2CCCN2C(=O)[C@H]2CCCN2C(=O)[C@H](CO)NC(=O)[C@H](CO)NC(=O)[C@H](CC2CCCCC2)NC(=O)[C@H](CCN)NC(=O)[C@H](Cc2c[nH]c3ccccc23)NC(=O)[C@H](CCN)NC(=O)[C@@H](CCN)NC(=O)[C@H](CCCCN)NC(=O)[C@H](CCN)NC(=O)[C@H](Cc2ccc(O)cc2)NC(=O)[C@H](Cc2c[nH]c3ccccc23)NC1=O [compound 31] (cyclo(LWY[Dab]K[dDab][Dab]W[Dab][Cha]SS[dP]P)) .
## Result 1%
